EXPERIMENTAL_TARGET: Cytochrome P450 3A4 (Homo sapiens);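 also: CYP3A4 tested as one member of a cytochrome P450 panel screen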
Sequence (P08684 whole entry): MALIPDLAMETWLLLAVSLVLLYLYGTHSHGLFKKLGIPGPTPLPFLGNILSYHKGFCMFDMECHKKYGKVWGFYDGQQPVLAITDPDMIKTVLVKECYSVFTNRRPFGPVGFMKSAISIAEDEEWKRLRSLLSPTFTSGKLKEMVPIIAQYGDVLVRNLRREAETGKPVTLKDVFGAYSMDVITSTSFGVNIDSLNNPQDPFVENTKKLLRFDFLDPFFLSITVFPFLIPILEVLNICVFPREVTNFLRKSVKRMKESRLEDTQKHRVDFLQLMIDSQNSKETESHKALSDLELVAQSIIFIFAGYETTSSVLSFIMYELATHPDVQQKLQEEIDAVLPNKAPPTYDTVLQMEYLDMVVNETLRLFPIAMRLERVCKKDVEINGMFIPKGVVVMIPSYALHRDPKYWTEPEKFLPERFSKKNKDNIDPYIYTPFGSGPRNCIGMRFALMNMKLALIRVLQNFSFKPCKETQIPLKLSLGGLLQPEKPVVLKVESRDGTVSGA
Kindly state AC50 for each of the entries shown.

Which AC50 reading was recorded for the compound `COC(=O)N1CCC2(CCCN(Cc3nccs3)C2)CC1` ? 15.8 µM (inconclusive)

Entry `C=CCNCCOCCOc1ccc(C)cc1[N+](=O)[O-]` please 12.6 µM (inconclusive)

Entry `CN1CCN(c2ccncc2S(=O)(=O)N2CCN(C)CC2)CC1` please 3.16 µM (inconclusive)

Entry `CC(C)Sc1cc(N2CCCC2)nc(-c2ccc(F)cc2)n1` please 17.8 µM (inconclusive)

Entry `O=c1c(-c2cc(F)cc(F)c2)nc2cnc(Oc3ccccc3)nc2n1C[C@H]1CCCO1` please 15.8 µM (inconclusive)

Entry `CC[n+]1c(/C=C/N(C)c2ccccc2)sc2ccc(Cl)cc21` please 17.8 µM (inconclusive)

Entry `Cc1cc(C)n2nc(-c3sccc3-n3cccc3)cc2n1` please 3.55 µM (inconclusive)

Entry `Cc1sc(N)c(C(=O)c2cccc(C(F)(F)F)c2)c1C` please 12.6 µM (inconclusive)

Entry `COc1ccc(S(=O)(=O)N2CCCN(CCC(=O)Nc3cccc(C(F)(F)F)c3)CC2)cc1` please 39.8 µM (inconclusive)

Entry `CC(=O)NCCNc1ccnc(-c2ccccc2C(F)(F)F)n1` please 15.8 µM (inconclusive)

Entry `Cc1c(/C=C2\SC(=O)N(CC(=O)Nc3ccc4c(c3)OCO4)C2=O)c2ccccc2n1C` please 0.2 µM (inconclusive)

Entry `Cc1ccc(C)c(NC(=O)NCc2ccc(Cl)cc2)c1` please 2.51 µM (inconclusive)

Entry CCOC(=O)CC1C(=O)NCCN1S(=O)(=O)c1ccc(Cl)c(Cl)c1 (stereo not drawn) please 12.6 µM (inconclusive)

Entry `COC(=O)c1ccc(CSc2nc3cc(Cl)ccc3s2)o1` please 25.1 µM (inconclusive)

Entry `C#CCCCO/N=C1/C[C@@H](O)[C@@H](O)[C@@H]2[C@@H]3C(=O)N(C[C@@H]4CCCO4)C(=O)[C@H]3CC[C@@H]12` please 3.98 µM (inconclusive)

Entry `O=C1C(Cl)=C(Sc2nnc3c4ccccc4c4ccccc4c3n2)C(=O)c2ccccc21` please 5.01 µM (inconclusive)

Entry `c1nc(NCCc2c[nH]cn2)c2nc[nH]c2n1` please 3.98 µM (inconclusive)

Entry `COc1ccc(-n2c(=O)c(-c3cccs3)nc3cnc(N4CCOCC4)nc32)cc1` please 20 µM (inconclusive)

Entry `Fc1ccc(-c2[nH]ncc2-c2nnnn2-c2ccccc2)c(F)c1` please 10 µM (inconclusive)

Entry `CO[C@@H]1COC(=O)C/C=C\[C@@H](C)[C@@H]2C=C[C@H](O)[C@@H](COC(=O)CCC[C@H]1C)O2` please 3.98 µM (inconclusive)

Entry `Cc1ccccc1CN1CCN(CC(=O)NCCCN2CCN(c3ccc(F)cc3)CC2)C1=O` please 25.1 µM (inconclusive)

Entry `Nc1c(C(=O)NCc2ccccc2)sc2nc3c(cc12)C(=O)CCC3` please 25.1 µM (inconclusive)

Entry `CC(C)(C)c1cccc(Oc2nn[nH]n2)c1` please 22.4 µM (inconclusive)

---

EXPERIMENTAL_TARGET: Fatty acid synthase (Homo sapiens)
Sequence (P49327 whole entry, the tested form may be a part): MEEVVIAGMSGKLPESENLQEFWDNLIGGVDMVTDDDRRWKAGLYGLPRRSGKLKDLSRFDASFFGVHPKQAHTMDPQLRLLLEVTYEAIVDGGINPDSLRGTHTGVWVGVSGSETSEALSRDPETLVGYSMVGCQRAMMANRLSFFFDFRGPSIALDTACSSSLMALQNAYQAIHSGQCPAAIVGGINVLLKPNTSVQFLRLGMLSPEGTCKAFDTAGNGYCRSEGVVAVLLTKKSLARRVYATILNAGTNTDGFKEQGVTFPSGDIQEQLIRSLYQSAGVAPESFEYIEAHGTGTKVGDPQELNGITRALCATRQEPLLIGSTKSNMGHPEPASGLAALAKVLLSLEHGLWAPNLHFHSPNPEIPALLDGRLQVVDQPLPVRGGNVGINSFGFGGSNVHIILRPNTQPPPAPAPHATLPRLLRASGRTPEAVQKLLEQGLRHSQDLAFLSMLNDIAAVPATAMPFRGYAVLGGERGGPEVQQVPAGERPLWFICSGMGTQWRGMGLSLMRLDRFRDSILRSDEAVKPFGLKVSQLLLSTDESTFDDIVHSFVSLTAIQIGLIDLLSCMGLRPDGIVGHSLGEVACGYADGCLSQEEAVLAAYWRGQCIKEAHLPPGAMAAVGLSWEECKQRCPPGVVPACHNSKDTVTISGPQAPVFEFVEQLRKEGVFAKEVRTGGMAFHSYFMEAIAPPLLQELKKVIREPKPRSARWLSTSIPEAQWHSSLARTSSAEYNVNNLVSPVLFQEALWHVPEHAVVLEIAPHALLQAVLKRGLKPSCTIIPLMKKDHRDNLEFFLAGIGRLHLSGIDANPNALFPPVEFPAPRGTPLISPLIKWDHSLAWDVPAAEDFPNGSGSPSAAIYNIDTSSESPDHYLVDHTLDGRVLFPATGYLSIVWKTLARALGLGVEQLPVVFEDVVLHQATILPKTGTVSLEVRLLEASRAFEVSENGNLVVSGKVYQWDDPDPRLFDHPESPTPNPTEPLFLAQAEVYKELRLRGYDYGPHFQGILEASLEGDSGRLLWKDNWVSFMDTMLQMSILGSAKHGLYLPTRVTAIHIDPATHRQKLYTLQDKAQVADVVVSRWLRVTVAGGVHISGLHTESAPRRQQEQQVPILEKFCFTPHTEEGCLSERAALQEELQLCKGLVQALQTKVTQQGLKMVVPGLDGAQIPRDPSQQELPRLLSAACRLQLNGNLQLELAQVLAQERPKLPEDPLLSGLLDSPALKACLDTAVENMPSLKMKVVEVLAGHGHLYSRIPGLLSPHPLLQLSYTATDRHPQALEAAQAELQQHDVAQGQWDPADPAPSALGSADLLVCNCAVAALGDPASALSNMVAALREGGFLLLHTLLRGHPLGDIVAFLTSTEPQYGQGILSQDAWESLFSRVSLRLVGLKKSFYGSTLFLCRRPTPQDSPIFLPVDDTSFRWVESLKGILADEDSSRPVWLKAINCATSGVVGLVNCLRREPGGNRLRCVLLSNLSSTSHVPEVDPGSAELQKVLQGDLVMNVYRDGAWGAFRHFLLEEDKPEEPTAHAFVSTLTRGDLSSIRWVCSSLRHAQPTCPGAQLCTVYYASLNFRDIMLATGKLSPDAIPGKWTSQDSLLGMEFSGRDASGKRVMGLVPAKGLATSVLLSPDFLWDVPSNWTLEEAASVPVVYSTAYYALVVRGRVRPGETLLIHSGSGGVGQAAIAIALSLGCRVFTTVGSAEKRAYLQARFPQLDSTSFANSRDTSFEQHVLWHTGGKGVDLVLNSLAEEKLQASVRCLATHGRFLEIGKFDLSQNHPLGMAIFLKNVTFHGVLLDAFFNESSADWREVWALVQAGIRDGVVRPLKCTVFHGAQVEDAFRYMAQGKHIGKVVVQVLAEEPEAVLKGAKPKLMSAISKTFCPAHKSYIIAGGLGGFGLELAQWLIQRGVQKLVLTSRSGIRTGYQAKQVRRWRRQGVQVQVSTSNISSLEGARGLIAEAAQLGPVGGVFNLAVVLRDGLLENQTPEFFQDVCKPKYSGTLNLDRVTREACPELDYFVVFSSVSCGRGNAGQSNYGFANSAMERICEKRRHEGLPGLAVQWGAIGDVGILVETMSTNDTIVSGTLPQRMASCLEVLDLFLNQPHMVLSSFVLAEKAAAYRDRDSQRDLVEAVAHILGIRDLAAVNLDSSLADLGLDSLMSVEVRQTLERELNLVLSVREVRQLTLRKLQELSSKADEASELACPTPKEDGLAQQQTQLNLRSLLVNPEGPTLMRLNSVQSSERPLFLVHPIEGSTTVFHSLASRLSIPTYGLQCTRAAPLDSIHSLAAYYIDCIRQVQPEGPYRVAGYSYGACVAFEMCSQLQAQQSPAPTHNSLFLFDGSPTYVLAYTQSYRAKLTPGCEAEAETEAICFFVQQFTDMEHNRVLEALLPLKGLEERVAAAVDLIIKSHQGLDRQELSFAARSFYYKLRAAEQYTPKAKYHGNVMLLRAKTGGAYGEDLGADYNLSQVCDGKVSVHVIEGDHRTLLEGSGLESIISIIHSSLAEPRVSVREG
ASSAY_TEXT: FAS thioesterase domain inhibitors, dose response, biochemical, endpoint fluorescence intensity, uHTS hits (AID 624327);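 also: fluorescence from hydrolysis of an O-methyl fluorescein acyl ester substrate by the enzyme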
Assay type: functional
Activity calls are given as the source filed them.
Kindly state IC50 for each of the entries shown.

GET /values?readout=IC50&system=Fatty acid synthase (Homo sapiens)&item= `O=C(CCN1C(=O)/C(=C\c2ccccc2Cl)SC1=S)Nc1cccnc1` 7.21 µM (active)

Entry `O=C(O)c1ccc(Cl)c(NC(=S)NC(=O)c2cccc(COc3ccccc3)c2)c1` please 6.11 µM (active)

Entry `O=C(COC(=O)c1cc([N+](=O)[O-])ccc1NCCO)Nc1ccc2c(c1)OCO2` please 2.69 µM (active)

Entry `O=c1oc(-c2ccco2)nc2sc3c(c12)CCCCC3` please 5.34 µM (active)

Entry `O=C(Cn1cc([N+](=O)[O-])ccc1=O)N1CCc2ccccc2C1` please 3.74 µM (active)

Entry Cc1nnc(SC(C(=O)Nc2ccc(Cl)c([N+](=O)[O-])c2)c2ccccc2)nc1O (stereo unspecified) please 17.3 µM (active)
